Origin of measurements: patent US11891348B2

Structures can show the parent of a compound that is named as a salt.
observation.type: melting point (°C)
Field format: number, assumed °C, no unit text.

Worked cases, melting point given:
> print(dat)
                                   compound  observation.type  observed.value
1  O=C(NC1CCCCCC1)C(=O)NC1CCCCCC1 [compound 8, N1,N2-dicycloheptyloxalamide]     melting point             232
2  N=C(N)NC1CCCCCC1 (as salt: hydrochloride) [compound 10, 1-Cycloheptylguanidine hydrochloride]     melting point             106
3               Cl.N=C(N)/N=C(\N)NC1CCCCCC1     melting point             283

Here's the next entry for you.
In: Value lookup for melting point; key = c1cc(-c2cc[n+](C3CCCCCC3)cc2)ccn1 (as salt: chloride)
Out: 102
